- assay info: Stability in Simulated Intestinal Fluid (SIF)
- Format: in vitro ADME
- Design: key: % parent compound remaining relative to 0-minute sample
- cond: % remaining at 1 h in simulated intestinal fluid
Exercise: for every item that follows, state its recorded SIF.
Output spec: scalar in % remaining, unitless text.

compound CC(C)OCCn1c(=S)[nH]c(=O)c2c1ccn2COC(=O)CCNC(=O)[C@@H](NC(=O)OC(C)(C)C)[C@@H](C)O.O=C(O)C(F)(F)F [Example 36] , SIF observed: 88

compound CC(C)OCCn1c(SCOC(=O)OCCOCCNC(=O)OC(C)(C)C)nc(=O)c2c1ccn2COC(=O)OCCOCCNC(=O)OC(C)(C)C [Example 121] , SIF observed: 56

compound CC(C)OCCn1c(=S)[nH]c(=O)c2c1ccn2COC(=O)CCCCNC(=O)[C@@H]1CCC(=O)N1C(=O)OCc1ccccc1.O=C(O)C(F)(F)F [Example 16] , SIF observed: 93

compound CSCC[C@H](NC(=O)OCC1c2ccccc2-c2ccccc21)C(=O)NCCCCC(=O)OCn1ccc2c1c(=O)[nH]c(=S)n2CCOC(C)C.O=C(O)C(F)(F)F [Example 20] , SIF observed: 76

compound CC(C)OCCn1c(=S)[nH]c(=O)c2c1ccn2COC(=O)CCNC(=O)[C@H](CO)NC(=O)OC(C)(C)C.O=C(O)C(F)(F)F [Example 42] , SIF observed: 75

compound CC(C)OCCn1c(=S)[nH]c(=O)c2c1ccn2COC(=O)CCCCNC(=O)[C@H](CO)NC(=O)OC(C)(C)C.O=C(O)C(F)(F)F [Example 41] , SIF observed: 87

compound CC(C)OCCn1c(=S)[nH]c(=O)c2c1ccn2COC(=O)[C@@H]1CCN(C(=O)OC(C)(C)C)C1 [Example 129] , SIF observed: 21

compound CC(C)OCCn1c(SCOC(=O)C2CCN(C(=O)OC(C)(C)C)CC2)nc(=O)c2c1ccn2COC(=O)CCC(=O)OC(C)(C)C [Example 131] , SIF observed: 75

compound CC(C)OCCn1c(=S)[nH]c(=O)c2c1ccn2COC(=O)CCNC(=O)[C@@H](N)Cc1c[nH]c2ccccc12.O=C(O)C(F)(F)F [Example 52] , SIF observed: 81

compound CC(C)OCCn1c(=S)[nH]c(=O)c2c1ccn2COC(=O)OCCOCCNC(=O)OC(C)(C)C [Example 120] , SIF observed: 64

compound CC(C)OCCn1c(=S)[nH]c(=O)c2c1ccn2COC(=O)CCCCNC(=O)CN.O=C(O)C(F)(F)F [Example 15] , SIF observed: 4

compound CNCC(=O)NCCC(=O)OCn1ccc2c1c(=O)[nH]c(=S)n2CCOC(C)C.O=C(O)C(F)(F)F [Example 56] , SIF observed: 1

compound CNCC(=O)NCCCCC(=O)OCn1ccc2c1c(=O)[nH]c(=S)n2CCOC(C)C.O=C(O)C(F)(F)F [Example 55] , SIF observed: 98

---

- assay info: Plasma Stability
- Format: in vitro ADME, human
- cond: % remaining at 1 h in human plasma; the 15th table
Exercise: for every item that follows, state its recorded human Plasma stability.
Output spec: scalar in % remaining, unitless text.

compound CC(C)OCCn1c(SCOC(=O)Oc2ccccc2)nc(=O)c2[nH]ccc21 , human Plasma stability observed: 2

compound CCCCNC(=O)OCSc1nc(=O)c2c(ccn2C(=O)NCCCC)n1CCOC(C)C , human Plasma stability observed: 97

compound CCCCCCCCOC(=O)OCSc1nc(=O)c2c(ccn2COC(=O)OCCCCCCCC)n1CCOC(C)C , human Plasma stability observed: 92

compound COC(=O)OCSc1nc(=O)c2c(ccn2CSc2nc(=O)c3[nH]ccc3n2CCOC(C)C)n1CCOC(C)C , human Plasma stability observed: 46

compound CC(C)OCCn1c(SCOC(=O)NCc2ccccc2)nc(=O)c2[nH]ccc21 , human Plasma stability observed: 97

compound CC(C)OCCn1c(SCOC(=O)OC(C)C)nc(=O)c2[nH]ccc21 , human Plasma stability observed: 1

compound CC(C)OCCn1c(=S)[nH]c(=O)c2c1ccn2CO , human Plasma stability observed: 86

compound CCCCOC(=O)OCSc1nc(=O)c2[nH]ccc2n1CCOC(C)C , human Plasma stability observed: 1
